System tested: DMRT3; also: reference of the scale not given here
Assay procedure: pooled miR-30 sensor sort-seq; sequence = guide strand
Details: shRNA
Exercise: for every item that follows, state its recorded sensor-assay potency score (higher = more potent).
Answers are plain numbers.

Some solved entries appear below for comparison.
Biosequence	Reading
TTACTCTTTGCCACATCTGGGG	-0.22
TTTGTCACTGAAGACCTCTGTA	0.155
TTTTTTAACACTTCAAGCGGCG	-0.226
TTGCAACAGAACCACTTCCTTT	-0.544

Okay, here is my list. What is sensor-assay potency score (higher = more potent) for each of these?
1. TTGTCTCTGAAAACTGTCCAAG
2. TTTGACACAAATGGACACCCAT

Completion:
1. -0.806
2. 0.206

Each recorded value in this set is attributed to the OligoGym collection.
